Cited source: patent US6962920B2

targetOrSystem: Pc DHFR (Pneumocystis carinii)
Sequence (P16184 1-206): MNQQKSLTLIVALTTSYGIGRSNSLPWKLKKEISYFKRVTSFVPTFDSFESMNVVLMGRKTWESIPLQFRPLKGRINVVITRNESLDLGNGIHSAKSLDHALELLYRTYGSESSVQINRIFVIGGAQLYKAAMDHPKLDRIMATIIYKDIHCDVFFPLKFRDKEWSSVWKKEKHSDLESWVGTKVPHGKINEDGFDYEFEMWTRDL
experimentSummary: biochemical
recordedConditions: Table 26; read-out: Inhibitory Concentrations (IC50) Pc DHFR
measurementName: IC50 (µM)
Just the number in µM, nothing appended.

Ask: Please report the recorded IC50 for COc1cc(CCc2c[nH]c3nc(N)nc(C)c23)cc(OC)c1OC [Compound 113-154A] .
Result: 55
